assay: Hepatic metabolic stability (hepatocyte clearance) assay, substrate depletion; format: in vitro ADME, human; conditions: both sexes, human, hepatocytes, Bkgd Adj Clint
property_name: hepatocyte CLint at 1 μM (µL/min/1e6 cells)
Write the answer as a number in µL/min/1e6 cells, unit excluded.

What hepatocyte CLint at 1 μM value was documented for this compound, `OCC(F)(F)OC(F)(F)C(F)(F)OC(F)(F)CO` ? 6.72

---

system: human plasma; test: Chemical stability in plasma over the UC assay time course (T5hr/T1hr); settings: median fraction stable in plasma, UC assay Level4
property_name: Fstable.Med
// print number alone

Example entries and their recorded answers appear below.
molecule	Fstable.Med
OCCC(F)(F)C(F)(F)C(F)(F)C(F)(F)C(F)(F)C(F)(F)C(F)(F)C(F)(F)F [8:2 Fluorotelomer alcohol]	0.162
FC(F)(F)C(F)(F)CNCC(F)(F)C(F)(F)F [Bis(1H,1H-perfluoropropyl)amine]	0.999
OCC(F)(F)C(F)(F)C(F)(F)C(F)(F)C(F)(F)C(F)(F)F [6:1 Fluorotelomer alcohol]	0.204
OCC(F)(F)C(F)(F)C(F)(F)C(F)(F)C(F)(F)C(F)(F)C(F)(F)C(F)(F)CO [1H,1H,10H,10H-Perfluorodecane-1,10-diol]	0.997
NCC(F)(F)C(F)(F)C(F)(F)C(F)(F)C(F)(F)C(F)(F)F [1H,1H-Perfluoroheptylamine]	0.0946

Data request, read-out Fstable.Med, for NC(=O)C(F)(F)C(F)(F)C(F)(F)C(F)(F)C(F)(F)C(F)(F)C(F)(F)F [Perfluorooctanamide] 0.738

Entry OCCCC(F)(F)C(F)(F)C(F)(F)C(F)(F)C(F)(F)C(F)(F)C(F)(F)C(F)(F)F [3-(Perfluorooctyl)propanol] : reported Fstable.Med = ? 0.272
